# Tested on: cytidine deaminase
# reportedConditions: 20 mM substrate, KH2PO4 100 mM pH 7.0, 90 AU cytidine deaminase, 37° C., 5 hours
# Experimental: The reaction was performed at 37° C. during […] and stopped with HCl. Then, the crude reaction was filtered through a 10 KDa membrane, and a portion was diluted and analyzed by HPLC under UV-DAD (ultraviolet-diode array detection). Product identification was performed by comparison to a standard sample. After 5 hours, the reaction was stopped with HCl and a portion of the reaction was diluted and filtered for HPLC and MS analysis.
Where a name gives a salt, the structure may show the parent alone.
experimentalEndpoint: yield of deaminated product (HPLC, crude mixture)

Retrieve yield of deaminated product (HPLC, crude mixture) measured for COC(=O)[C@@H](NP(=O)(OC[C@H]1O[C@@H](n2ccc(N)nc2=O)[C@H](O)[C@@H]1O)Oc1ccccc1)C(C)C (stereo partly shown) [compound 12, hydrochloride] and print it.
> 70%

Retrieve yield of deaminated product (HPLC, crude mixture) measured for COC(=O)[C@H](CC(C)C)NP(=O)(OC[C@H]1O[C@@H](n2ccc(N)nc2=O)[C@H](O)[C@@H]1O)Oc1ccccc1 (stereo partly shown) [compound 10, hydrochloride] and print it.
> 70%

Further cases:
Retrieve yield of deaminated product (HPLC, crude mixture) measured for COC(=O)[C@H](C)NP(=O)(OC[C@H]1O[C@@H](n2ccc(N)nc2=O)[C@H](O)[C@@H]1O)Oc1ccccc1.Cl (stereo partly shown) and print it.
> 80%
